ASSAY_REMARKS: Ganaxolone plasma concentrations after oral administration in humans
Format: in vivo, human
CONDITION_DESCRIPTION: human, plasma; twice-a-day oral administration of 1000 mg ganaxolone; read-out: mean Cmax
MEASURED_PARAMETER: Cmax

stdin: Name the recorded Cmax for CC(=O)[C@H]1CC[C@H]2[C@@H]3CC[C@H]4C[C@](C)(O)CC[C@]4(C)[C@H]3CC[C@]12C [Ganaxolone, 3α-hydroxy-3β-methyl-5α-pregnan-20-one] .
stdout: ~262 ng/mL

###

ASSAY_REMARKS: Ganaxolone plasma concentrations after oral administration in humans
Type: in vivo, human
CONDITION_DESCRIPTION: human, plasma; 3 to 18 mg/kg TID, oral suspension formulation; read-out: Cmax
MEASURED_PARAMETER: Cmax

stdin: Given the entry CC(=O)[C@H]1CC[C@H]2[C@@H]3CC[C@H]4C[C@](C)(O)CC[C@]4(C)[C@H]3CC[C@]12C [Ganaxolone, 3α-hydroxy-3β-methyl-5α-pregnan-20-one] , report its measured Cmax.
stdout: ~123 ng/mL
